Data provenance is paper PMC7180830.

# System: HIV-1 K103N mutant strain
# experiment.notes: Anti-HIV assay against K103N mutant strain in MT-4 cells
# Format: cell-based
# details: Human immunodeficiency virus 1, MT4, read-out: EC50 K103N
Label True when EC50 is strictly below 700 nM; otherwise label False.

Does Cc1c(C(C#N)c2ccnc(Nc3ccc(C#N)cc3)n2)ccc(C#N)c1Cl (centres unmarked) have EC50 strictly under 700 nM?
False

is_below(EC50, 700 nM) for O=C1Nc2ccc(Cl)cc2[C@@](C#CC2CC2)(C(F)(F)F)O1 [Efavirenz, efavirenz, reference compound] ?
True

Is EC50 of Cc1cc(C#N)cc(C)c1Oc1nc(Nc2ccc(C#N)cc2)nc(N)c1Br [Etravirine, etravirine, reference compound] strictly below 700 nM?
True

Confirm or reject: EC50 of Cc1cnc(Nc2ccc(C#N)cc2)nc1C(C#N)c1ccc(C#N)c(Cl)c1C (centres unmarked) lies strictly below 700 nM
True

A record lists Cc1cnc(Nc2ccc(C#N)cc2)nc1C(C#N)c1ccc(C#N)cc1Cl (centres unmarked) . Is its EC50 below 700 nM?
True

Determine whether this compound shows EC50 lower than 700 nM (ties excluded): N#Cc1ccc(Nc2nccc(C(C#N)c3c(Cl)cc(C#N)cc3Cl)n2)cc1 (centres unmarked)
False

is_below(EC50, 700 nM) for N#Cc1ccc(Nc2nccc(C(C#N)c3ccc(C#N)cc3C(F)(F)F)n2)cc1 (centres unmarked) ?
False

Lab log: compare recorded EC50 with 700 nM; is it strictly lower for N#Cc1ccc(Nc2nccc(C(C#N)c3ccc(C#N)cc3)n2)cc1 (centres unmarked) ?
False

A record lists COc1cc(C(C#N)c2ccnc(Nc3ccc(C#N)cc3)n2)ccc1C#N (centres unmarked) . Is its EC50 below 700 nM?
False

Identify whether the compound Cc1cc(C#N)c(Br)cc1C(C#N)c1nc(Nc2ccc(C#N)cc2)ncc1C (centres unmarked) records EC50 below 700 nM.
True

Continuing:
API: query returns whether the compound falls strictly under 700 nM in EC50. Query: Cc1cc(C(C#N)c2ccnc(Nc3ccc(C#N)cc3)n2)ccc1C#N (centres unmarked)
False

Please let me know if Cc1cnc(Nc2ccc(C#N)cc2)nc1C(C#N)c1ccc(C#N)cc1Br (centres unmarked) shows EC50 below 700 nM.
True

In the record for Cc1ccnc2c1NC(=O)c1cccnc1N2C1CC1 [Nevirapine, nevirapine, reference compound] , is EC50 less than 700 nM?
False

Below 700 nM on EC50? Entry N#Cc1ccc(Nc2nccc(C(C#N)c3ccc(C#N)cc3Br)n2)cc1 (centres unmarked)
False

Just wondering, is EC50 of N#Cc1ccc(Nc2nccc(C(C#N)c3ccc(C#N)cc3F)n2)cc1 (centres unmarked) below 700 nM?
False

# check: EC50 < 700 nM for Cc1cc(C#N)c(Br)cc1C(C#N)c1ccnc(Nc2ccc(C#N)cc2)n1 (centres unmarked)
False

====

# experiment.notes: Cytotoxicity in mock-infected MT-4 cells, MTT method
# details: human, mock-infected (uninfected) MT-4 cells
experimental.endpoint: CC50 at 5 days (µM)
Hi! Could you send only the number? It should be in µM, unit omitted.

Known CC50 at 5 days results, listed for orientation:
I'd like to know its CC50 at 5 days. The compound in question is COc1cc(C(C#N)c2ccnc(Nc3ccc(C#N)cc3)n2)ccc1C#N (centres unmarked)
78.4

Endpoint output: CC50 at 5 days of N#Cc1ccc(Nc2nccc(C(C#N)c3ccc(C#N)cc3Br)n2)cc1 (centres unmarked) . Value?
3.4

# CC50 at 5 days lookup, item N#Cc1ccc(Nc2nccc(C(C#N)c3c(Cl)cc(C#N)cc3Cl)n2)cc1 (centres unmarked)
4.5

Further cases:
Form field: reported CC50 at 5 days of Cc1cc(C#N)c(Br)cc1C(C#N)c1ccnc(Nc2ccc(C#N)cc2)n1 (centres unmarked)
13.2
